System: Rhizoctonia solani
assay text: microbe, parasite or virus in culture
Assay type: functional
measurement setup: read-out: GI
Description: Fungicidal activity against Rhizoctonia solani assessed as inhibition rate of circle mycelium growth at 500 ug/ml
# inhibition of growth at 500 µg/mL values compiled below
Write the answer as a number in %, unit excluded.

Field: example entries. Status: answers known.
compound | output unit | inhibition of growth at 500 µg/mL
CCCC1COC(Cn2cncn2)(c2ccc(Cl)cc2Cl)O1 (stereo unspecified) [PROPICONAZOLE] | % | 90
Cc1cccc2sc3nncn3c12 [TRICYCLAZOLE] | % | 85
Cc1cccc2sc(NN=C3CCCCC3)nc12 | % | 0
C/C(=N\Nc1nc2c(C)cccc2s1)c1ccc(Br)cc1 | % | 50

QUERY: Provide inhibition of growth at 500 µg/mL, tested on Rhizoctonia solani, for Cc1cccc2sc(NN)nc12 .
RESULT: 0

QUERY: Provide inhibition of growth at 500 µg/mL, tested on Rhizoctonia solani, for C/C(=N\Nc1nc2c(C)cccc2s1)c1ccccc1 .
RESULT: 0

----------
System: Alternaria alternata
assay text: microbe, parasite or virus in culture
Assay type: functional
measurement setup: read-out: GI
Description: Fungicidal activity against Alternaria alternata assessed as inhibition rate of circle mycelium growth at 500 ug/ml
quantity: inhibition of growth at 500 µg/mL
Answer format: number, then unit.

Field: example entries. Status: answers known.
compound | inhibition of growth at 500 µg/mL
C/C(=N\Nc1nc2c(C)cccc2s1)c1c(F)cccc1F | 0%
C/C(=N\Nc1nc2c(C)cccc2s1)c1ccccc1 | 21.7%
Cc1cccc2sc(NN)nc12 | 13.6%
Cc1cccc2sc(NN=C3CCCC3)nc12 | 52.2%
Cc1cccc2sc(NN=C3CCCCC3)nc12 | 47.8%

// below: inhibition of growth at 500 µg/mL requested for another compound
QUERY: Specify reported inhibition of growth at 500 µg/mL for the compound shown: C/C(=N\Nc1nc2c(C)cccc2s1)c1ccc(Cl)cc1
RESULT: 0%

----------
Test system: Rhizoctonia solani
Assay type: functional
measurement setup: at 100 µg/mL
Description: Fungicidal activity against Rhizoctonia solani assessed as inhibition rate of circle mycelium growth at 100 ug/ml relative to control
quantity: Efficacy
Answer format: number, then unit.

Field: example entries. Status: answers known.
compound | Efficacy
COc1ccc(/C(C)=N/Nc2nc3c(C)cccc3s2)cc1 | 10%
Cc1cccc2sc3nncn3c12 | 22%
C/C(=N\Nc1nc2c(C)cccc2s1)c1c(F)cccc1F | 35%

QUERY: Specify reported Efficacy for the compound shown: CCCC1COC(Cn2cncn2)(c2ccc(Cl)cc2Cl)O1 (centres undefined)
RESULT: 40%

----------
# inhibition of growth at 500 µg/mL values compiled below
Test system: Rhizoctonia solani
assay text: microbe, parasite or virus in culture
Type: functional
measurement setup: read-out: GI
Write the answer as a number in %, unit excluded.

Field: example entries. Status: answers known.
compound string | target or system | inhibition of growth at 500 µg/mL, %
C/C(=N\Nc1nc2c(C)cccc2s1)c1ccc(C)cc1 | Rhizoctonia solani | 30
COc1ccccc1/C(C)=N/Nc1nc2c(C)cccc2s1 | Rhizoctonia solani | 60
CC(C)=NNc1nc2c(C)cccc2s1 | Rhizoctonia solani | 0
COc1ccc(/C(C)=N/Nc2nc3c(C)cccc3s2)cc1 | Rhizoctonia solani | 95

QUERY: Specify reported inhibition of growth at 500 µg/mL for the compound shown: C/C(=N\Nc1nc2c(C)cccc2s1)c1cccc(Cl)c1
RESULT: 0

----------
System: Alternaria alternata
assay text: microbe, parasite or virus in culture
Format: functional
measurement setup: read-out: GI
quantity: inhibition of growth at 500 µg/mL (%)
Write the answer as a number in %, unit excluded.

compound | inhibition of growth at 500 µg/mL [%]
CC/C(C)=N/Nc1nc2c(C)cccc2s1 | 47.8
C/C(=N\Nc1nc2c(C)cccc2s1)c1cccc(Cl)c1 | 0

QUERY: Provide inhibition of growth at 500 µg/mL, tested on Alternaria alternata, for C/C(=N\Nc1nc2c(C)cccc2s1)C(C)C .
RESULT: 56.5

QUERY: Provide inhibition of growth at 500 µg/mL, tested on Alternaria alternata, for Cc1cccc2sc3nncn3c12 .
RESULT: 0

QUERY: Provide inhibition of growth at 500 µg/mL, tested on Alternaria alternata, for C/C(=N\Nc1nc2c(C)cccc2s1)c1ccc(C)cc1 .
RESULT: 0

----------
System: Rhizoctonia solani
assay text: microbe, parasite or virus in culture
Type: functional
measurement setup: read-out: GI
quantity: inhibition of growth at 500 µg/mL
Answer format: number, then unit.

Field: example entries. Status: answers known.
compound string | inhibition of growth at 500 µg/mL
C/C(=N\Nc1nc2c(C)cccc2s1)c1c(F)cccc1F | 95%
C/C(=N\Nc1nc2c(C)cccc2s1)C(C)C | 60%
C/C(=N\Nc1nc2c(C)cccc2s1)c1ccc([N+](=O)[O-])cc1 | 90%
C/C(=N\Nc1nc2c(C)cccc2s1)c1ccc(F)cc1 | 0%
Cc1cccc2sc(NN=C3CCCC3)nc12 | 85%

QUERY: Specify reported inhibition of growth at 500 µg/mL for the molecule shown: C/C(=N\Nc1nc2c(C)cccc2s1)c1ccc(Cl)cc1
RESULT: 0%

QUERY: Specify reported inhibition of growth at 500 µg/mL for the molecule shown: CC/C(C)=N/Nc1nc2c(C)cccc2s1
RESULT: 90%

----------
Tested on: Alternaria alternata
assay text: microbe, parasite or virus in culture
Type: functional
measurement setup: read-out: GI
quantity: inhibition of growth at 500 µg/mL (%)
Write the answer as a number in %, unit excluded.

Field: example entries. Status: answers known.
compound | output unit | value observed
CCCC1COC(Cn2cncn2)(c2ccc(Cl)cc2Cl)O1 (configuration not stated) | % | 0
C/C(=N\Nc1nc2c(C)cccc2s1)c1ccc(F)cc1 | % | 0
COc1ccccc1/C(C)=N/Nc1nc2c(C)cccc2s1 | % | 0

QUERY: Specify reported inhibition of growth at 500 µg/mL for the compound shown: C/C(=N\Nc1nc2c(C)cccc2s1)c1ccc([N+](=O)[O-])cc1
RESULT: 0

QUERY: Specify reported inhibition of growth at 500 µg/mL for the compound shown: COc1ccc(/C(C)=N/Nc2nc3c(C)cccc3s2)cc1
RESULT: 30.4

QUERY: Specify reported inhibition of growth at 500 µg/mL for the compound shown: CC(C)=NNc1nc2c(C)cccc2s1
RESULT: 47.8

QUERY: Specify reported inhibition of growth at 500 µg/mL for the compound shown: C/C(=N\Nc1nc2c(C)cccc2s1)c1ccc(Br)cc1
RESULT: 0
